Test system: Fer (mouse)
Experiment: phosphorylation enrichment, bacterial display (enrichment ratio); higher = better substrate or ligand; peptides without Tyr show the background
Binary classification by phosphorylation enrichment, with 0.5 as an inclusive lower bound for 1; all other cases are 0.

{"columns": ["ORDERED RESIDUES", "LABEL"],
 "data": [
  ["QPSALYEDRFL [ASS1_Y83_S79P_YF]", 1],
  ["KVPAIYGVGTR [CPS1_Y162_D165G]", 0],
  ["SSMSDYNPLEK [MYOC_Y479_I477S]", 1],
  ["RQSTLYSFFPT [MSH6_Y8_K13T]", 1],
  ["LNERHYGGLTG [PGAM2_Y92]", 0],
  ["FKDFFYCWNTF [AICDA_Y146_YF]", 1],
  ["RREQDYTNLPS [CSF1R_Y923_R921Q]", 1],
  ["EEQKKNFNAMK [SCN5A_Y1494_Y1494N_YF]", 0],
  ["GSRGKYSSGFC [ATM_Y332_R337C]", 0],
  ["FRTPGYREVVI [TNS2_Y673_A670T_YF]", 0],
  ["NNDLCYWVLEL [IARS1_Y434_P437L]", 1],
  ["HNQDGYSFPSR [LDLR_Y845_YF]", 1],
  ["GRQGIYTENER [GPR143_Y231]", 0],
  ["QLYGPYLRIHA [BSCL2_Y213_A212P]", 1],
  ["ATDLAYFLVCK [ASL_Y375_R379C_YF]", 1],
  ["KLQQWYREHRS [GPI_Y17]", 0],
  ["PGLKGYPGLSG [COL4A2_Y306_R304K]", 0],
  ["QTPVLYAMLYH [MPZ_Y220_D224Y]", 1],
  ["ESMNTYLQTSP [NAT1_Y208]", 1],
  ["FPPISYLNAIS [MVD_Y276]", 0],
  ["TFEYRYLEDQD [CNOT3_Y746_R750Q]", 1],
  ["DLDLTYIFPNI [PTEN_Y27_YF]", 1],
  ["EIIPFYGMSSF [FNDC3B_Y175_T179S_YF]", 1],
  ["LYEDCYLLGTS [ASS1_Y87_R86C]", 1],
  ["FPPDGYSRHCE [CTNND1_Y213_Y217C_YF]", 0],
  ["SGRPGYCLGTR [SCO1_Y60]", 0]
]}

----------
Target: c-Src SH2;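 further: peptide library displayed on the E. coli surface as eCPX fusions, selected cells deep-sequenced, score is each peptide's frequency after selection divided by its frequency in the input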
Assay: SH2 binding enrichment of the phosphorylated peptide, bacterial display (enrichment ratio); higher = better substrate or ligand; peptides without Tyr show the background
Binary classification by SH2 binding enrichment, with 0.6 as an inclusive lower bound for label 1; all other cases are label 0.

{"columns": ["ORDERED RESIDUES", "LABEL"],
 "data": [
  ["FGAHNHHPLPV [OAT_Y55_Y55H_YF]", "label 1"],
  ["WQQQSYLYSGI [CTNNB1_Y30_D32Y]", "label 1"],
  ["GDEVEYMSVSF [GCLC_Y53_L55S]", "label 0"],
  ["SQPASYQRRLL [PPIG_Y320]", "label 0"],
  ["CDLTDYLMKIL [ACTA1_Y190_R185C]", "label 1"],
  ["PEPTGYSAELS [EZR_Y499_A494P]", "label 0"],
  ["VSYGEYRYRSV [CFTR_Y515_D513G]", "label 0"],
  ["TVHPGYGFLSE [PCCA_Y143_A138T]", "label 0"],
  ["LGGAMYYLEAE [PKHD1_Y452]", "label 1"],
  ["ATDLAYFLVCK [ASL_Y375_R379C_YF]", "label 0"],
  ["ISNATYKEIGL [FLT1_Y199]", "label 1"],
  ["DTLMEYLENPK [CYCS_Y68]", "label 0"],
  ["LGRTRYQDVTG [MIPEP_Y510_H512D]", "label 1"],
  ["KPVDTYFDSTR [DYNC2H1_Y2230_M2227V_YF]", "label 0"],
  ["SNSATYSGSVA [PDLIM5_Y382]", "label 0"],
  ["GLNKGYRMVVN [HINT1_Y94]", "label 0"],
  ["LKMLVYLDMSK [LRRC7_Y234]", "label 0"],
  ["EIIPFYGMSSF [FNDC3B_Y175_T179S_YF]", "label 1"],
  ["IEPVIYVVQRR [ANOS1_Y217]", "label 0"],
  ["QMIETYFDFRV [NSMF_Y506_L511V]", "label 0"],
  ["TFEYRYLEDQD [CNOT3_Y746_R750Q]", "label 1"],
  ["MANYMYKAGPS [MAML2_Y515]", "label 0"],
  ["PSSNLYYRWLT [CNGA3_Y168]", "label 1"],
  ["TDEYEYDELIV [TGM1_Y136]", "label 1"],
  ["ERFSYYGMKAV [SLC15A2_Y61]", "label 1"]
]}

----------
System: c-Abl (mouse)
Test: phosphorylation enrichment, bacterial display (enrichment ratio); higher = better substrate or ligand; peptides without Tyr show the background
OBSERVATION TYPE: phosphorylation enrichment

{"columns": ["ORDERED RESIDUES", "OBSERVATION TYPE", "RECORDED NUMBER"],
 "data": [
  ["YDGGCYEQLFV [MC4R_Y41_S36Y]", "phosphorylation enrichment", 1.01],
  ["SSNLFYRWLTA [CNGA3_Y169_YF]", "phosphorylation enrichment", 0.665],
  ["PYADPYYDYEI [ZC3H18_Y371]", "phosphorylation enrichment", 1.16],
  ["QVQQIYSDSDL [MIB1_Y376_R371Q]", "phosphorylation enrichment", 1.09],
  ["SYSGEYGSGGG [ZG16_Y30_G32S]", "phosphorylation enrichment", 0.596],
  ["LERYIYNREEL [HLA-DPB1_Y59_F64L]", "phosphorylation enrichment", 0.777],
  ["DTERIYDDDFF [UBA1_Y560]", "phosphorylation enrichment", 1.01],
  ["KQFWRYFAGNL [SLC25A4_Y112]", "phosphorylation enrichment", 0.764],
  ["EKMWTYMRSAE [GRIA4_Y695]", "phosphorylation enrichment", 0.81],
  ["GVSYIYTIDGS [DCX_Y105_R102S]", "phosphorylation enrichment", 0.663],
  ["FLTLHYDAKPQ [ANG_Y38_Q36L]", "phosphorylation enrichment", 0.501],
  ["IYHLSYLHNCE [PDE6B_Y227]", "phosphorylation enrichment", 3.41],
  ["VYSIDYYRVGG [NTRK2_Y706_T704I]", "phosphorylation enrichment", 0.788],
  ["KLIETCFSKNF [PLP1_Y50_Y50C_YF]", "phosphorylation enrichment", 0.826]
]}

----------
System: AncSZ
Assay: phosphorylation enrichment, bacterial display (enrichment ratio); higher = better substrate or ligand; peptides without Tyr show the background

{"columns": ["ORDERED RESIDUES", "MEASURED TARGET", "phosphorylation enrichment"],
 "data": [
  ["KPVDTYFDSTR [DYNC2H1_Y2230_M2227V_YF]", "AncSZ", 0.925],
  ["LKTNWYNNGKD [DNMT3B_Y404_C403W]", "AncSZ", 1.54],
  ["HFGCIYHGTLL [MET_Y1093_V1092I]", "AncSZ", 1.4],
  ["KGIDRYNPENL [EIF3K_Y21]", "AncSZ", 0.583],
  ["LTSVKYLLSAT [GSDMC_Y26_P23S]", "AncSZ", 0.703],
  ["CERFSYYGMKA [SLC15A2_Y60]", "AncSZ", 1.59],
  ["EAIAKYDLKAT [GRB2_Y7_F9L]", "AncSZ", 0.809],
  ["AIIEEYLHLND [EIF4G1_Y1253]", "AncSZ", 1.02],
  ["VSFDEYRFRSV [CFTR_Y515_YF]", "AncSZ", 0.972],
  ["PRIHSYRGHLW [VHL_Y112_R107P]", "AncSZ", 1.01],
  ["LLQAEYWHDPI [PPT1_Y185_V181L]", "AncSZ", 1.89],
  ["EVKEAYMGSVL [ACAT1_Y90_N93S]", "AncSZ", 0.841],
  ["IHHIDYFKETT [FGFR1_Y653_K656E_YF]", "AncSZ", 0.605],
  ["GESQGYDIMEA [MSH2_Y863_P868A]", "AncSZ", 0.85],
  ["DCAAIYGNEPE [AKR1A1_Y50]", "AncSZ", 1.27],
  ["STEAIYWRYSK [SH3PXD2B_Y42_R43W]", "AncSZ", 1.33],
  ["LMLVLYGRIFL [HTR1A_Y215_R220L]", "AncSZ", 1.11],
  ["HFVDEYDRTIE [KRAS_Y32_P34R]", "AncSZ", 2.01],
  ["NMSRIYSTAKV [ACE_Y151]", "AncSZ", 0.573],
  ["GVIKEYQIRQV [USH2A_Y3623]", "AncSZ", 0.627],
  ["PVGVLYEVKVY [PTS_Y128_K129E]", "AncSZ", 1.64],
  ["GREEFYVHYVG [KAT8_Y90]", "AncSZ", 1.16],
  ["FQNSLYAPDYS [FAM92A_Y226_R222Q]", "AncSZ", 1.1],
  ["GHLFAYDWISI [BEST1_Y227_YF]", "AncSZ", 1.25],
  ["KMTGRYEMFAR [UPB1_Y362_YF]", "AncSZ", 0.808],
  ["KVGNGYISAAE [CALM2_Y100_D96V]", "AncSZ", 0.619],
  ["PEPTGYSAELS [EZR_Y499_A494P]", "AncSZ", 1.02],
  ["TNLVPYPRIHF [TUBA1A_Y262]", "AncSZ", 0.501],
  ["SKGYAYVHFDS [PABPC5_Y149]", "AncSZ", 1.22],
  ["FRDALYKFMVD [PHEX_Y250_YF]", "AncSZ", 1.15],
  ["SNPAFYVLEGV [INPPL1_Y987_N982S_YF]", "AncSZ", 0.818],
  ["ARAHKYHGGGG [HBB_Y146_L142R]", "AncSZ", 0.384],
  ["GRSTYYWPRPR [GAGE12J_Y10]", "AncSZ", 0.697],
  ["EWLRRYLENGK [HLA-A_Y195]", "AncSZ", 0.691],
  ["FRNSLYAPDYS [FAM92A_Y226]", "AncSZ", 0.723],
  ["HNQDGYSFPSR [LDLR_Y845_YF]", "AncSZ", 1.94],
  ["NKVKFYIPDMN [NCR1_Y84]", "AncSZ", 0.743],
  ["LRGEDYGFSVD [PRKCI_Y430]", "AncSZ", 1.1],
  ["FETNVYVDKNL [PTCHD3_Y688_K685T]", "AncSZ", 0.996],
  ["KVQVSYKGETK [HSPA1A_Y107]", "AncSZ", 0.608],
  ["VAVVQYSGMGQ [COL6A1_Y878_T881M]", "AncSZ", 0.554],
  ["RTLIRYANLSN [BEST1_Y131_G135S]", "AncSZ", 0.774],
  ["PSSNLYYRWLT [CNGA3_Y168]", "AncSZ", 1.89],
  ["SRIWVYNHYRW [BRCA2_Y2621]", "AncSZ", 1.05],
  ["FSPFDYQPCLA [TNS1_Y798_YF]", "AncSZ", 1.39],
  ["TIQRMYGCDVG [HLA-A_Y123_I121R]", "AncSZ", 0.761],
  ["TVHPGYGFLSE [PCCA_Y143_A138T]", "AncSZ", 0.717],
  ["MSRDVYSIDFF [NTRK2_Y702_T704I_YF]", "AncSZ", 1.02],
  ["NHFKIHNLCAE [PTEN_Y68_Y68H_YF]", "AncSZ", 0.58],
  ["VTGWGYRKLRE [F11_Y521_D526E]", "AncSZ", 0.907],
  ["QRVLLYVQRET [GRHL3_Y518_R520Q]", "AncSZ", 1.82],
  ["HEKFLYFLPAS [DYNC2H1_Y346]", "AncSZ", 2.17],
  ["TVHCDYLNISH [TAF1L_Y1385_P1389S]", "AncSZ", 1.1],
  ["ITQRAYRRHLL [SCN1A_Y1926_I1922T]", "AncSZ", 0.63],
  ["FKDFFYCWNTF [AICDA_Y146_YF]", "AncSZ", 1.87],
  ["ISRVLYPNDNF [PYGM_Y281]", "AncSZ", 0.649],
  ["DFLEKYFKFGC [NNMT_Y24_S29C_YF]", "AncSZ", 1.11],
  ["ERTIEYLEEVA [HADHA_Y239]", "AncSZ", 1.28]
]}
